biological target: T1, human transferrin receptor (hTfR) (human, UniProt P02786 89-760); assay: SPR (Biacore T200), pH 6.0, hTfR on chip
T1 construct: Recombinant hTfR; at pH 7.4 captured on the chip by an anti-His tag antibody, at pH 6.0 immobilized on an NTA chip, so it carries a His tag; also called human TfR; TfR1
T1 sequence (P02786 89-760 limits assumed): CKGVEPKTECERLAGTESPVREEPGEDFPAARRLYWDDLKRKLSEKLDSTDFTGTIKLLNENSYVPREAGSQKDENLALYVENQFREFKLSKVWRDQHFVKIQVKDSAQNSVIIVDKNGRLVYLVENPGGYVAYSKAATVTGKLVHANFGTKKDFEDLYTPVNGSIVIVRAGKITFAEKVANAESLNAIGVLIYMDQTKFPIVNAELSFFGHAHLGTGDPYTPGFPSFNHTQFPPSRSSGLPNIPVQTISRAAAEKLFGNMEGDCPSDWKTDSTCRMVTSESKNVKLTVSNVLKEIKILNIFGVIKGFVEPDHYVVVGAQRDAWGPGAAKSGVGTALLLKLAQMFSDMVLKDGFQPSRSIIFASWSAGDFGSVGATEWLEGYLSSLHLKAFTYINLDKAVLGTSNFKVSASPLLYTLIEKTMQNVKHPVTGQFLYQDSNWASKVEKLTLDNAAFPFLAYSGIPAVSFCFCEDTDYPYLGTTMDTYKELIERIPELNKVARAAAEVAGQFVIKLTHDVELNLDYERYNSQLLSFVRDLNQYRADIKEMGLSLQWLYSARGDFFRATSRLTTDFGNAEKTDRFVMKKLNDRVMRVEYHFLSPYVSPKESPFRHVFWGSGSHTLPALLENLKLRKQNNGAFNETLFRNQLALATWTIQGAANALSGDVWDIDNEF
Bridge positions count the residues as written; N and C are the ends. Square brackets hold non-standard residues; d marks the D form. Ends that are not written are not given here. NMePhe(4-COOH) = CN[C@@H](Cc1ccc(C(=O)O)cc1)C(=O)O; NMePhe(3-Cl) = CN[C@@H](Cc1cccc(Cl)c1)C(=O)O; 3Pal(6-NH2) = Nc1ccc(C[C@H](N)C(=O)O)cn1; NMeW = CN[C@@H](Cc1c[nH]c2ccccc12)C(=O)O; NMeY = CN[C@@H](Cc1ccc(O)cc1)C(=O)O; Nva(3-Et) = CCC(CC)[C@H](N)C(=O)O; NMeF = CN[C@@H](Cc1ccccc1)C(=O)O
parameter: Kd (nM)
Only the number, expressed in nM, is required.

Solved entries:
{CH2CO}-AV[NMeF]V[NMeW]NYY[Nva(3-Et)]IKRY[NMePhe(4-COOH)]C (thioether N-15; not fully specified (C-terminus)) [894_0593]: 9.52
AVXVWNXYIIKRYXC (not fully specified; as printed: A-V-MeF-V-W-N-3Py6NH2-Y-I-I-K-R-Y-MeY-C; linker PEG4c; cyclic (ClAc-Ala1 thioether to Cys15)) [894_0601]: 17.4
AVXVXNYYXIKRYXC (as printed: A-V-Me3Py-V-MeW-N-Y-Y-Eva-I-K-R-Y-MeY-C; linker PEG4c; cyclic (ClAc-Ala1 thioether to Cys15)) [894_0616]: 50.8
AVXVXNXYIIKRYXC (not fully specified; as printed: A-V-MeF-V-MeW-N-3Py6NH2-Y-I-I-K-R-Y-MeY-C; linker PEG4c; cyclic (ClAc-Ala1 thioether to Cys15)) [894_0602]: 18.9
{CH2CO}-AV[NMePhe(3-Cl)]V[NMeW]NYY[Nva(3-Et)]SKRY[NMeY]C (thioether N-15; not fully specified (C-terminus)) [894_0612]: 13.2
AVXVWNYYIIRRXXC (as printed: A-V-MeF-V-W-N-Y-Y-I-I-R-R-F3COO(PEG8Me)-MeY-C; linker G-KN3; cyclic (ClAc-Ala1 thioether to Cys15)) [894_3436]: 6.72

Enquiry: Dear colleague, I am looking for the recorded Kd of the following binder: {CH2CO}-AV[NMePhe(3-Cl)]V[NMeW]N[3Pal(6-NH2)]YI[code s]KRY[NMeY]C (thioether N-15; also: linker PEG4c attached, place not given here, Position 10 is printed as lower-case 's') [894_0620]
Return: 16.2

Enquiry: Can you check {CH2CO}-AV[NMeF]VWN[3Pal(6-NH2)]YIIKRY[NMePhe(4-COOH)]C (thioether N-15; not fully specified (C-terminus)) [894_0603] next?
Return: 35

Enquiry: Next entry: AVXVWNYYIIXRYXC (as printed: A-V-MeF-V-W-N-Y-Y-I-I-E(PEG8Me)-R-Y-MeY-C; linker G-KN3; cyclic (ClAc-Ala1 thioether to Cys15)) [894_3435]
Return: 41.2

Enquiry: Next: {CH2CO}-AV[NMeF]V[NMeW]N[3Pal(6-NH2)]YI[code s]KRY[NMeY]C (thioether N-15; also: linker PEG4c attached, place not given here, Position 10 is printed as lower-case 's') [894_0619]
Return: 126

Enquiry: Same read-out for AVXVXNYYIIKRXXC (not fully specified; as printed: A-V-MeF3C-V-W1Me-N-Y-Y-I-I-K-R-4Py-MeY-C; linker PEG4c; cyclic (ClAc-Ala1 thioether to Cys15)) [894_0607] ?
Return: 2.04

Cited source: patent EP4667483A1
